Each item that follows carries a reported IC50.
MEASURED TARGET: human noradrenaline transporter (hNET) (Homo sapiens)
Construct: expressed in transfected cells; host or cells: COS-7 cells (ATCC), transient transfection with metafectene
Sequence (P23975 whole entry): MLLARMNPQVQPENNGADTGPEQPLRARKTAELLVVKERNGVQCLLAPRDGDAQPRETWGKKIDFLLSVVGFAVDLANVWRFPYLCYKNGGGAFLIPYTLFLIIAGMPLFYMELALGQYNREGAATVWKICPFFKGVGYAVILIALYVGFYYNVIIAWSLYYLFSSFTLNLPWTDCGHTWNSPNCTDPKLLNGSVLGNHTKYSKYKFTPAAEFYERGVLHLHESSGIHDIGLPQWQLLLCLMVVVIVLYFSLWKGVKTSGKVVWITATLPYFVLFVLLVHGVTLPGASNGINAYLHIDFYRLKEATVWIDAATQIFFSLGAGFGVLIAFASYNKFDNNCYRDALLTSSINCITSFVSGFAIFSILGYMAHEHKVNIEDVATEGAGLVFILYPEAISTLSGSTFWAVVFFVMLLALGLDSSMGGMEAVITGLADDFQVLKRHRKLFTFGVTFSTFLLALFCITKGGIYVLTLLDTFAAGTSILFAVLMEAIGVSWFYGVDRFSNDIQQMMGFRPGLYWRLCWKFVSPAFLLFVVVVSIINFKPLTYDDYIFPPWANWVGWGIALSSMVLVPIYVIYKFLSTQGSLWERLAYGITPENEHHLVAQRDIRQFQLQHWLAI
PROTOCOL SUMMARY: biochemical
Type: binding
COND: Av IC50 Displacement of 3H-nisoxetine from hNET
Residues, ends and D or L forms follow the SMILES beside them.
RESULT TYPE: IC50 (µM)

[[record]]
compound = "CC(C)[C@H](NC(=O)CNC(=O)[C@@H](N)CC(N)=O)C(=O)N[C@H]1CSSC[C@@H](C(N)=O)NC(=O)[C@@H]2CCCN2C(=O)[C@H](Cc2c[nH]cn2)NC(=O)[C@@H]2CSSC[C@H](NC1=O)C(=O)NCC(=O)N[C@@H](Cc1ccc(O)cc1)C(=O)N[C@@H](CCCCN)C(=O)N[C@@H](CCCCN)C(=O)N2 [compound 196] (HELM PEPTIDE1{N.G.V.C.C.G.Y.K.K.C.H.P.C.[am]}$PEPTIDE1,PEPTIDE1,4:R3-13:R3|PEPTIDE1,PEPTIDE1,5:R3-10:R3$$$V2.0)"
measured_target = "human noradrenaline transporter (hNET) (Homo sapiens)"
readout_value = 182

[[record]]
compound = "CC(C)C[C@@H]1NC(=O)[C@H](CCCCN)NC(=O)[C@H](Cc2ccc(O)cc2)NC(=O)CNC(=O)[C@@H]2CSSC[C@H](NC1=O)C(=O)N[C@@H](Cc1c[nH]cn1)C(=O)N[C@@H](CCC(=O)O)C(=O)N[C@H](C(N)=O)CSSC[C@H](NC(=O)[C@@H](NC(=O)CNC(=O)[C@@H](N)CC(N)=O)C(C)C)C(=O)N2 [compound 159] (HELM PEPTIDE1{N.G.V.C.C.G.Y.K.L.C.H.E.C.[am]}$PEPTIDE1,PEPTIDE1,4:R3-13:R3|PEPTIDE1,PEPTIDE1,5:R3-10:R3$$$V2.0)"
measured_target = "human noradrenaline transporter (hNET) (Homo sapiens)"
readout_value = 4.9

[[record]]
compound = "CC(=O)N[C@@H](Cc1ccc(O)cc1)C(=O)N[C@@H](CC(N)=O)C(=O)NCC(=O)N[C@H](C(=O)N[C@H]1CSSC[C@@H](C(N)=O)NC(=O)[C@@H]2CCCN2C(=O)[C@H](Cc2c[nH]cn2)NC(=O)[C@@H]2CSSC[C@H](NC1=O)C(=O)NCC(=O)N[C@@H](Cc1ccc(O)cc1)C(=O)N[C@@H](CCCCN)C(=O)N[C@@H](CC(C)C)C(=O)N2)C(C)C"
measured_target = "human noradrenaline transporter (hNET) (Homo sapiens)"
readout_value = 6.17


====

MEASURED TARGET: human noradrenaline transporter (hNET) (Homo sapiens)
Construct: expressed in transfected cells; host or cells: COS-7 cells (ATCC), transient transfection with metafectene
PROTOCOL SUMMARY: cell-based
Residues, ends and D or L forms follow the SMILES beside them.
RESULT TYPE: IC50 (nM)

[[record]]
molecule = "CC(C)C[C@H](NC(=O)[C@H](CC(=O)O)NC(=O)[C@H](CCCCN)NC(=O)[C@@H](N)Cc1c[nH]c2ccccc12)C(=O)N[C@H]1CSSC[C@@H](C(N)=O)NC(=O)[C@@H]2CCCN2C(=O)[C@H](Cc2c[nH]cn2)NC(=O)[C@@H]2CSSC[C@H](NC1=O)C(=O)NCC(=O)N[C@@H](Cc1ccc(O)cc1)C(=O)N[C@@H](CCCCN)C(=O)N[C@@H](CC(C)C)C(=O)N2 [compound 85] (HELM PEPTIDE1{W.K.D.L.C.C.G.Y.K.L.C.H.P.C.[am]}$PEPTIDE1,PEPTIDE1,5:R3-14:R3|PEPTIDE1,PEPTIDE1,6:R3-11:R3$$$V2.0)"
result_unit = "nM"
readout_value = 89.1

[[record]]
molecule = "CC(C)C[C@@H]1NC(=O)[C@H](CCCCN)NC(=O)[C@H](Cc2ccc(O)cc2)NC(=O)CNC(=O)[C@@H]2CSSC[C@H](NC1=O)C(=O)N[C@H](C(N)=O)CSSC[C@H](NC(=O)[C@@H](N)C(C)C)C(=O)N2 [compound 148] (HELM PEPTIDE1{V.C.C.G.Y.K.L.C.C.[am]}$PEPTIDE1,PEPTIDE1,2:R3-9:R3|PEPTIDE1,PEPTIDE1,3:R3-8:R3$$$V2.0)"
result_unit = "nM"
readout_value = 347

[[record]]
molecule = "CC(C)C[C@@H]1NC(=O)[C@H](CCCCN)NC(=O)[C@H](Cc2ccc(O)cc2)NC(=O)CNC(=O)[C@@H]2CSSC[C@H](NC1=O)C(=O)N[C@@H](Cc1c[nH]cn1)C(=O)N1CCC[C@H]1C(=O)N[C@H](C(N)=O)CSSC[C@H](NC(=O)[C@@H](NC(=O)CNC(=O)[C@H](CC(N)=O)NC(=O)[C@@H](N)Cc1c[nH]c3ccccc13)C(C)C)C(=O)N2"
result_unit = "nM"
readout_value = 3160

